test system: U2OS-LMNB1-TUBA1B-ACTB; assay: cell count relative to DMSO control (panel C1, DRAQ5/ER stain) (fraction of control); higher = more cells (less toxicity); conditions: 20 µM; treatment time: 24 h
Reported cell count values follow for various compounds
measurement.name: cell count

1. COC(=O)Nc1nc2ccc(C(=O)c3cccs3)cc2[nH]1 ... 0.369
2. CC[C@H]1CN2CCc3cc(OC)c(OC)cc3[C@@H]2C[C@@H]1C[C@H]1NCCc2cc(OC)c(OC)cc21 ... 0.899
3. CCc1c2c(nc3ccc(OC(=O)N4CCC(N5CCCCC5)CC4)cc13)-c1cc3c(c(=O)n1C2)COC(=O)[C@]3(O)CC ... 0.66
4. O=c1[nH]c(=O)n([C@H]2C[C@H](O)[C@@H](CO)O2)cc1F ... 0.892
5. O=C(/C=C\n1cnc(-c2cc(C(F)(F)F)cc(C(F)(F)F)c2)n1)NNc1cnccn1 [selinexor] ... 0.693
6. CC[C@@]1([C@@H]2O[C@@H]([C@H]3O[C@@](O)(CO)[C@H](C)C[C@@H]3C)C[C@@H]2C)CC[C@H]([C@]2(C)CC[C@]3(C[C@H](O)[C@@H](C)[C@@H]([C@@H](C)[C@@H](OC)[C@H](C)C(=O)O)O3)O2)O1 ... 0.418
7. CN(C)[C@@H]1C(O)=C(C(N)=O)C(=O)[C@@]2(O)C(O)=C3C(=O)c4c(O)ccc(Cl)c4[C@@](C)(O)[C@H]3C[C@@H]12 ... 0.897
